Listed here: items and their measured Emission wavelength.
- PROTOCOL_DETAILS: Absorption/emission wavelength of the compounds (Table 1)
- Assay type: physicochemical
- CONDITION_INFO: DMSO
Only the number, expressed in nm, is required.

# annotated cases, reported Emission wavelength shown
| COMPOUND | UNIT | Emission wavelength |
| --- | --- | --- |
| CCN1/C(=C/C=C2\CC(c3ccc(C(=O)OC)cc3)CC(/C=C/C3=[N+](CC)c4ccc5cc(S(=O)(=O)O)ccc5c4C3(C)C)=C2Cl)C(C)(C)c2c1ccc1cc(S(=O)(=O)O)ccc21 (centres unmarked) | nm | 865 |
| CCN1/C(=C/C=C2\CC(C(C)(C)C(=O)OC)CC(/C=C/C3=[N+](CC)c4ccc5cc(OC)ccc5c4C3(C)C)=C2Sc2ccc(C(=O)[O-])cc2)C(C)(C)c2c1ccc1cc(OC)ccc21 (centres unmarked) | nm | 900 |
| CCN1/C(=C/C=C2\CC(c3ccc(C(=O)OC)cc3)CC(/C=C/C3=[N+](CC)c4ccc5cc(Br)ccc5c4C3(C)C)=C2Cl)C(C)(C)c2c1ccc1cc(Br)ccc21.[I-] (centres unmarked) | nm | 863 |
| CCN1/C(=C/C=C2\CC(c3ccc(C(=O)OC)cc3)CC(/C=C/C3=[N+](CC)c4ccc5cc(OC)ccc5c4C3(C)C)=C2Cl)C(C)(C)c2c1ccc1cc(OC)ccc21.[I-] (centres unmarked) | nm | 876 |

Now for the compound whose Emission wavelength we want.
Entry under review: CCN1/C(=C/C=C2\CC(C(C)(C)C(=O)OC)CC(/C=C/C3=[N+](CC)c4ccc5cc(OC)ccc5c4C3(C)C)=C2Sc2ccc(C(=O)NCCN)cc2)C(C)(C)c2c1ccc1cc(OC)ccc21.[I-] (centres unmarked) . Reported Emission wavelength?
889
